Values from ChEMBL document CHEMBL4346765

Can you tell me pIC50 for the items I'm about to list?
# Test system: MCF7
# ASSAY_NOTES: Cytotoxicity against human MCF7 cells assessed as reduction in cell viability at 0.1 to 40 uM incubated for 48 hrs by MTS assay
# Format: functional, cell-based
# CONDITION: MCF7, 48 h
Answers are plain numbers, as −log10 of the molar value.

>  <CHEM_SMILES>
C=CC(=O)Nc1cccc(Nc2nc(Nc3ccc(OCCOC)cc3)ncc2F)c1

>  <pIC50>
4.54

$$$$

Read the next record carefully.
[ask] Specify reported pIC50 for the molecule shown: C=CC(=O)Nc1cccc(Nc2nc(Nc3ccc(OCCSC(=S)NCc4cccnc4)cc3)ncc2F)c1
[reply] 4.76

* * *

Can you tell me pIC50 for the items I'm about to list?
# Test system: MCF-10A
# ASSAY_NOTES: Cytotoxicity against human MCF10A cells assessed as reduction in cell viability at 0.1 to 40 uM incubated for 48 hrs by MTS assay
# Type: cell-based
One number for each entry, as −log10 of the molar value.

>  <CHEM_SMILES>
C=CC(=O)Nc1cccc(Nc2nc(Nc3ccc(OCCOC)cc3)ncc2F)c1

>  <pIC50>
5.36

$$$$

Read the next record carefully.
[ask] Print MCF-10A pIC50 for C=CC(=O)Nc1cccc(Nc2nc(Nc3ccc(OCCSC(=S)NCc4cccnc4)cc3)ncc2F)c1 .
[reply] 5.06

* * *

# MEASUREMENT_TARGET: Tyrosine-protein kinase BTK (Homo sapiens, UniProt Q06187)
# Sequence (Q06187 whole entry): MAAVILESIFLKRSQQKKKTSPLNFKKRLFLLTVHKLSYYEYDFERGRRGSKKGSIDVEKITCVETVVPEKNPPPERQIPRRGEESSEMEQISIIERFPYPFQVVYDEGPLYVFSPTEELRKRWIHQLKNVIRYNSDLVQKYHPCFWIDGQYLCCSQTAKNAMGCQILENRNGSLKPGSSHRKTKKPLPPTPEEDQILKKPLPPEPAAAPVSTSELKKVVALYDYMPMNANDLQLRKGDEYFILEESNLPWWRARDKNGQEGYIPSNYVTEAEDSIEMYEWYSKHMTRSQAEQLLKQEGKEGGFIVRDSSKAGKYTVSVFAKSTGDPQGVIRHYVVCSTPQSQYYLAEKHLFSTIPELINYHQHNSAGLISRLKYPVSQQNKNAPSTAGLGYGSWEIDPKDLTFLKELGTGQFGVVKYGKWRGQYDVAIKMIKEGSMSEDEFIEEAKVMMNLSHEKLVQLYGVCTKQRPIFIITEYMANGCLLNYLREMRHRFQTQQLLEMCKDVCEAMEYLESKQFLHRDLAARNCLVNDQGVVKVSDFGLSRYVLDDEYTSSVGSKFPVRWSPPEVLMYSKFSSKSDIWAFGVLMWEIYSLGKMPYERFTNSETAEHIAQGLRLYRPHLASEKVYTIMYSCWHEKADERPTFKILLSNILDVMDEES
# ASSAY_NOTES: Inhibition of human recombinant full length BTK expressed in baculovirus in Sf9 insect cells using Poly (4:1 Glu, Tyr) as substrate incubated for 1 hr by ADP-Glo assay
QUANTITY_NAME: pIC50
Answers are plain numbers, as −log10 of the molar value.

>  <CHEM_SMILES>
C=CC(=O)Nc1cccc(Nc2nc(Nc3ccc(OCCSC(=S)NC)cc3)ncc2F)c1

>  <MEASUREMENT_TARGET>
Tyrosine-protein kinase BTK (Homo sapiens, UniProt Q06187)

>  <pIC50>
8.09

$$$$

Consider the following items and state reported pIC50 for each.
1. C=CC(=O)Nc1cccc(Nc2nc(Nc3ccc(OCCSC(=S)N4CCOCC4)cc3)ncc2F)c1
2. C=CC(=O)Nc1cccc(Nc2nc(Nc3ccc(OCCSC(=S)N(CCC)CCC)cc3)ncc2F)c1
3. C=CC(=O)Nc1cccc(Nc2nc(Nc3ccc(OCCSC(=S)N4CCCC4)cc3)ncc2F)c1

[reply]
[7.52, 6.62, 6.81]

[ask] Specify reported pIC50 for the molecule shown: C=CC(=O)Nc1cccc(Nc2nc(Nc3ccc(OCCSC(=S)N4CCN(Cc5ccccc5)CC4)cc3)ncc2F)c1
[reply] 6.55

* * *

# System: Raji
# ASSAY_NOTES: Antiproliferative activity against human Raji cells assessed as reduction in cell growth incubated for 48 hrs by MTS assay
Can you tell me pIC50 for the items I'm about to list?
Answers are plain numbers, as −log10 of the molar value.

>  <COMPOUND>
C=CC(=O)Nc1cccc(Nc2nc(Nc3ccc(OCCSC(=S)N4CCOCC4)cc3)ncc2F)c1

>  <pIC50>
5.37

$$$$
>  <COMPOUND>
C=CC(=O)Nc1cccc(Nc2nc(Nc3ccc(OCCSC(=S)NCc4ccncc4)cc3)ncc2F)c1

>  <pIC50>
6.30

$$$$
>  <COMPOUND>
C=CC(=O)Nc1cccc(Nc2nc(Nc3ccc(OCCSC(=S)N(CC)CC)cc3)ncc2F)c1

>  <pIC50>
4.86

$$$$
>  <COMPOUND>
C=CC(=O)Nc1cccc(Nc2nc(Nc3ccc(OCCCSC(=S)N(C)C)cc3)ncc2F)c1

>  <pIC50>
5.30

$$$$
>  <COMPOUND>
C=CC(=O)Nc1cccc(Nc2nc(Nc3ccc(OCCCCSC(=S)NCc4cccnc4)cc3)ncc2F)c1

>  <pIC50>
5.98

$$$$
>  <COMPOUND>
C=CC(=O)Nc1cccc(Nc2nc(Nc3ccc(OCCCCSC(=S)N4CCN(C(C)C)CC4)cc3)ncc2F)c1

>  <pIC50>
5.35

$$$$
>  <COMPOUND>
C=CC(=O)Nc1cccc(Nc2nc(Nc3ccc(OCCSC(=S)N4CCCC4)cc3)ncc2F)c1

>  <pIC50>
4.82

$$$$
>  <COMPOUND>
C=CC(=O)Nc1cccc(Nc2nc(Nc3ccc(OCCSC(=S)N4CCN(c5ccccc5)CC4)cc3)ncc2F)c1

>  <pIC50>
4.82

$$$$

Consider the following items and state reported pIC50 for each.
1. C=CC(=O)Nc1cccc(Nc2nc(Nc3ccc(OCCSC(=S)NCc4cccc(F)c4)cc3)ncc2F)c1
2. C=CC(=O)Nc1cccc(Nc2nc(Nc3ccc(OCCSC(=S)NCc4cccnc4)cc3)ncc2F)c1
3. C=CC(=O)Nc1cccc(Nc2nc(Nc3ccc(OCCSC(=S)N(C)Cc4cccnc4)cc3)ncc2F)c1
4. C=CC(=O)Nc1cccc(Nc2nc(Nc3ccc(NC(=O)CSC(=S)NCc4cccnc4)cc3)ncc2F)c1

[reply]
5.94
6.15
5.32
6.51

Consider the following items and state reported pIC50 for each.
1. C=CC(=O)Nc1cccc(Nc2nc(Nc3ccc(OCCSC(=S)N4CC(C)OC(C)C4)cc3)ncc2F)c1 (stereo not given)
2. C=CC(=O)Nc1cccc(Nc2nc(Nc3ccc(OCCSC(=S)N4CCN(CCO)CC4)cc3)ncc2F)c1
3. C=CC(=O)Nc1cccc(Nc2nc(Nc3ccc(OCCSC(=S)NCc4cnccn4)cc3)ncc2F)c1
4. C=CC(=O)Nc1cccc(Nc2nc(Nc3ccc(OCCSC(=S)NCc4ccc(C#N)cc4)cc3)ncc2F)c1
5. C=CC(=O)Nc1cccc(Nc2nc(Nc3ccc(OCCCSC(=S)NCc4cccnc4)cc3)ncc2F)c1
6. C=CC(=O)Nc1cccc(Nc2nc(Nc3ccc(OCCSC(=S)NCc4ccccn4)cc3)ncc2F)c1
7. C=CC(=O)Nc1cccc(Nc2nc(Nc3ccc(OCCSC(=S)NC4CCCCC4)cc3)ncc2F)c1
8. C=CC(=O)Nc1cccc(Nc2nc(Nc3ccc(OCCSC(=S)NC4CC4)cc3)ncc2F)c1

[reply]
1. 5.21
2. 5.11
3. 5.18
4. 5.91
5. 5.99
6. 4.99
7. 5.01
8. 5.20

Consider the following items and state reported pIC50 for each.
1. C=CC(=O)Nc1cccc(Nc2nc(Nc3ccc(OCCSC(=S)NCc4cc(OC)c(OC)c(OC)c4)cc3)ncc2F)c1
2. C=CC(=O)Nc1cccc(Nc2nc(Nc3ccc(OCCSC(=S)NC(C)C)cc3)ncc2F)c1
3. C=CC(=O)Nc1cccc(Nc2nc(Nc3ccc(OCCCSC(=S)N4CCN(C(C)C)CC4)cc3)ncc2F)c1
4. C=CC(=O)Nc1cccc(Nc2nc(Nc3ccc(OCCSC(=S)N4CCCCC4)cc3)ncc2F)c1
5. C=CC(=O)Nc1cccc(Nc2nc(Nc3ccc(OCCCCSC(=S)N(C)C)cc3)ncc2F)c1
6. C=CCNC(=S)SCCOc1ccc(Nc2ncc(F)c(Nc3cccc(NC(=O)C=C)c3)n2)cc1
7. C=CC(=O)Nc1cccc(Nc2nc(Nc3ccc(OCCSC(=S)N4CCN(C(C)=O)CC4)cc3)ncc2F)c1

[reply]
6.25
5.02
5.08
4.87
4.99
4.88
5.45

Consider the following items and state reported pIC50 for each.
1. C=CC(=O)Nc1cccc(Nc2nc(Nc3ccc(OCCSC(=S)N(C)C)cc3)ncc2F)c1
2. C=CC(=O)Nc1cccc(Nc2nc(Nc3ccc(OCCSC(=S)NCc4ccccc4)cc3)ncc2F)c1
3. C=CC(=O)Nc1cccc(Nc2nc(Nc3ccc(OCCSC(=S)N4CCN(C)CC4)cc3)ncc2F)c1
4. C=CC(=O)Nc1cccc(Nc2nc(Nc3ccc(OCCSC(=S)N(CCCC)CCCC)cc3)ncc2F)c1

[reply]
4.86
5.65
5.41
4.68
